Values were extracted from patent US20190153103A1.

# EXPERIMENTAL_SYSTEM: T1, rat BMPR1B overexpressed on the surface of HEK293T cells (N-terminal Asp-Lys epitope tag, … (rat, UniProt A0A8I6A0G0 62-550))
# T1 construct: whole, on cells
# T1 sequence (chain, as listed by the source): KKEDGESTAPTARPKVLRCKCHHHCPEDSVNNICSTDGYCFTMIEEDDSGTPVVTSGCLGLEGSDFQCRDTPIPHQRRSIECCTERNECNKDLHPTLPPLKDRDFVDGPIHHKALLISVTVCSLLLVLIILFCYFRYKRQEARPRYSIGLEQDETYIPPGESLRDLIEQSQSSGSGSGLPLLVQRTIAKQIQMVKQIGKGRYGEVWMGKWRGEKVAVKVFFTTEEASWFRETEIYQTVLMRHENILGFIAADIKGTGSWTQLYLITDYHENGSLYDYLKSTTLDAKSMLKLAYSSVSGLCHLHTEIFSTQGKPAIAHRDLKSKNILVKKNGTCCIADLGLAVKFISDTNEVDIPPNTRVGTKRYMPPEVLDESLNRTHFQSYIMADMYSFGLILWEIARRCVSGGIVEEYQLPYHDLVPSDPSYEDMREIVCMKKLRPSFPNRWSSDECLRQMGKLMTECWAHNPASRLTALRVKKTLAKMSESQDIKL
# ASSAY_NOTES: flow cytometry
RECORDED_ENDPOINT: Flow cytometry MFI

binder="SC91.27 (murine anti-BMPR1B antibody) (antibody, V domains shown, Murine hybridoma antibody with the same VL as SC91.20) VH: QVQLQQPGAEVVKPGASVKLSCKASGYTFTNYWMQWVKQRPGQGLEWIGEIDPSDRYTMYNQKFKGKATLIVDTSSSTAYMQLSSLTSEDSAVYFCARFGYYVDYWGQGTTLTVSS VL: DVVMTQTPLSLPVSLGDQASISCRSSQSLVHSTGNTYLHWYLQKPGQSPNLLIYKVSNRFSGVPDRFSGSGSGTDFTLKISRVEAEDLGVYFCSQSTHVPFTFGSGTKLEIK" recorded_endpoint="Flow cytometry MFI" numeric_result=5970
binder="SC91.11 (antibody, V domains shown) VH: QVQLQQPGAELVKPGASVKLSCKASGYTFTTYWMHWVKQRPGRGLEWIGRIDPNSGGTKYNEKFKSKATLTVDKPSSTACMQLSSLTSEDSAVYYCASRRGDIDVWGTGTTVTVSS VL: DIVMTQSQKFMSTSVGDRVSVTCKASQNVGTNVFWYQQKPGQSPKALIYAASYRYSGVPDRFTGSGSGTDFTLTISNVQSEDLADYFCQQYDSYPLTFGDGTKLELR" recorded_endpoint="Flow cytometry MFI" numeric_result=4660
binder="SC91.19 (antibody, V domains shown) VH: QIQLVQSGPELKKPGETVKISCKASGYTFTTYGMNWVKQAPGKGLKWMGWINTYSGVPSSANDFKGRFAFSLETSASTAYLQINNLKNEDTATYFCARSELRNWYFDVWGTGTTVTVSS VL: SFVMTQTPKFLLVSAGDRVTITCKASQSVGNDVAWYQQKPGQSPKLLIYYASNRYTGVPDRFTGSGYGTDFTFTISTVQAEDLAVYFCQQDYSSPFTFGSGTKLEMK" recorded_endpoint="Flow cytometry MFI" numeric_result=470
binder="SC91.20 (antibody, V domains shown) VH: QVQLQQPGAEVVRPGASLKLSCKASGYTFTSYWMQWIKQRPGQGLEWIGEIDPSDNYTMYNQKFKGKATLTVDTSSSTAYMQLSSLTSEDSAVYFCARFGFYVDYWGQGTTLTVSS VL: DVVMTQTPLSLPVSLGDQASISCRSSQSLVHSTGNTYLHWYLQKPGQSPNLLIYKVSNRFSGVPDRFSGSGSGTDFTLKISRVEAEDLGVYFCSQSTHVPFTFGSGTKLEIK" recorded_endpoint="Flow cytometry MFI" numeric_result=5940
